Can you tell me TGI for the items I'm about to list?
tested on: HCT-116 colon; assay: NCI tumour cell line growth inhibition, 48 h

Worked examples follow.
{"molecule": "COc1cc(/C=C/C(=O)C(C(=O)/C=C/c2ccc(OC(=O)CCNc3nnc(C)s3)c(OC)c2)C(=O)CCNc2nnc(C)s2)ccc1OC(=O)CCNc1nnc(C)s1", "result": "3.81 µM"}
{"molecule": "Cc1nn(-c2ccccc2)c2c1C(c1cc3ccccc3nc1Cl)NC(=S)N2 (stereo not given)", "result": "> 100 µM"}
{"molecule": "O=NNc1cnccn1", "result": "> 1250 µM"}

For each of the items listed, what is its TGI?
1. c1ccc2c(-c3nc4ccccc4[nH]3)cccc2c1
2. CCN(CC)CCC(=O)N1CCc2c([nH]c3ccccc23)C1c1cccnc1 (stereo not given)

1. 96.8 µM
2. > 100 µM

###

test system: NCI-H226 lung; experiment: NCI tumour cell line growth inhibition, 48 h
test-readout: TGI

{"molecule": "O=C1C=CC[C@H](/C=C/C[C@@H](O)C[C@H](O)/C=C/c2ccccc2)O1", "TGI": "28.7 µM"}
{"molecule": "Cc1ccc(NC(=O)C(=O)C2NC(=S)NC2=O)c([N+](=O)[O-])c1 (centres undefined)", "TGI": "> 100 µM"}

For each of the items listed, what is its TGI?
1. COc1ccc(Cn2cc3c(c2-c2ccc(O)cc2)CCc2cnoc2-3)cc1
2. COc1cccc(C2C(C(=O)O)=C(CO)Oc3cc4c(cc32)OCO4)c1 (centres undefined)
3. O=c1[nH]ccc2nc(-c3ccc(CN4CCC(c5nc(-c6ccccn6)n[nH]5)CC4)cc3)c(-c3ccccc3)cc12
4. CCn1c(-c2ccccc2)nc2c1C(=O)c1ccccc1C2=O

1. 31.3 µM
2. > 100 µM
3. > 100 µM
4. 71.6 µM

For each of the items listed, what is its TGI?
1. O=C1/C(=C/c2ccc(Cl)cc2)N=C(c2ccccc2)N1C1Nc2cc3c(cc2S1)NC(N1C(=O)/C(=C/c2ccc(Cl)cc2)N=C1c1ccccc1)S3 (centres undefined)
2. Clc1ccc2c(c1)CC1C[N+]3=C(CCCC3)C1=C2 (centres undefined)

["> 100 µM", "> 100 µM"]

Entry COc1ccc(CC2NCCc3cc(OC)c(OC)cc32)cc1 (centres undefined) has what TGI?
> 100 µM

###

tested on: UACC-257 melanoma; test: NCI tumour cell line growth inhibition, 48 h
Can you tell me GI50 for the items I'm about to list?

Worked examples follow.
{"molecule": "O=c1[nH]ccc2nc(-c3ccc(CN4CCC(c5nc(-c6ccccn6)n[nH]5)CC4)cc3)c(-c3ccccc3)cc12", "GI50": "14.8 µM"}
{"molecule": "O=C(CC(O)c1ccncc1)c1ccccc1 (stereo not given)", "GI50": "23.8 µM"}
{"molecule": "COc1cc(C(=O)N2CCN(c3ccccc3OC)CC2)c(N)cc1OCc1ccccc1", "GI50": "39 µM"}
{"molecule": "CC1CC(C)/C(=N/NC(N)=O)C(C(O)CC2CCC(=O)NC2=O)C1 (stereo not given)", "GI50": "3.48 µM"}

For each of the items listed, what is its GI50?
1. Cc1cc(O)ccc1O
2. COc1cc2c3c(n(CCCCNC(=O)OCC4c5ccccc5-c5ccccc54)c(=O)c2cc1OC)-c1cc2c(cc1C3=O)OCO2
3. C/C1=C\CC[C@@]2(C)O[C@@H]2C[C@@H]2[C@H](C/C(C)=C/CC1)OC(=O)C21CCN=N1 (stereo not given in full)
4. COc1ccc(Cn2cnc3cc(C(=O)Nc4cccc5ccccc45)ccc32)c(OC)c1
5. COc1cc2c(cc1OCCCCCn1c(-c3ccco3)nc3ccccc31)N=C[C@@H]1CCCN1C2=O
6. O=C(NCC(=O)N1CC[C@H](NC2CCC(O)(c3ccc(-c4ncccn4)cn3)CC2)C1)c1cccc(C(F)(F)F)c1 (stereo not given in full)

1. 43.1 µM
2. > 100 µM
3. > 100 µM
4. 39 µM
5. < 0.01 µM
6. 40.8 µM
